The values you see were collected from patent US10517889B2.

Tested on: human SMAD7 mRNA
Assay: Dose-dependent inhibition of human SMAD7 mRNA expression in Hep3B cells (Example 3, Study 1 and 2)
Assay type: cell-based
Settings: 6670.0 nM, electroporation, approximately 16 hours, Study 2
Experimental: The antisense oligonucleotides were tested in a series of experiments that had similar culture conditions as described below. Cells were plated at a density of 20,000 cells per well and transfected using electroporation with 0.31 μM, 1.25 μM, 5.00 μM, or 20.00 μM concentrations of antisense oligonucleotide, as specified in the Tables below. […] After a treatment period of approximately 16 hours, RNA was isolated from the cells and SMAD7 mRNA levels were measured by quantitative real-time PCR. […]
Strand notation (5' to 3'): a small letter for the sugar, then the base; units joined by * are phosphorothioate-linked, units joined directly phosphodiester-linked; [ ] holds rarer units or linkages, { } end groups; capitals alone tell only the bases. k = constrained ethyl (cEt); [5mC] = 5-methylcytosine; d = 2'-deoxy (DNA)
Definition: the class of an entry is the range in low group = under 60%, middle group = from 60% up to 70%, high group = 70% and over that contains its % inhibition of SMAD7 mRNA expression.

## Task Entry 799365 (k[5mC]*kT*k[5mC]*d[5mC]*dG*dA*dG*dT*dT*dA*dT*d[5mC]*d[5mC]*k[5mC]*k[5mC]*kA; antisense) [compound 799365] belongs to which category?
## Result high group

## Task Same lookup for 799572 (kA*k[5mC]*k[5mC]*dA*dT*d[5mC]*dT*dA*dA*d[5mC]*dA*dA*d[5mC]*kA*kT*k[5mC]; antisense) [compound 799572] , please.
## Result middle group

## Task Same lookup for 772560 (antisense kT*kT*kG*d[5mC]*dA*d[5mC]*dA*dG*d[5mC]*dA*dG*dG*dA*kG*kG*kG) [compound 772560] , please.
## Result low group

## Task Same lookup for 798781 (CGTAAGATTCACAGCA; 3-10-3 cEt gapmer, further chemistry not given here) [compound 798781] , please.
## Result high group

## Task Same lookup for 829864 (antisense kG*kG*kG*dT*dA*dA*d[5mC]*dT*dG*d[5mC]*dT*dG*d[5mC]*kG*kG*kT) [compound 829864] , please.
## Result middle group

## Task Same lookup for 799673 (antisense k[5mC]*kT*kG*dA*dT*dT*dA*dA*d[5mC]*dT*dT*dT*d[5mC]*k[5mC]*kT*kT) [compound 799673] , please.
## Result high group

## Task Same lookup for 799565 (kA*kG*kT*dA*dA*dA*d[5mC]*dA*dA*dT*dA*d[5mC]*d[5mC]*k[5mC]*kT*k[5mC]; antisense) [compound 799565] , please.
## Result middle group

## Task Same lookup for 830067 (kG*kA*kA*dA*dT*dG*dG*dT*dG*d[5mC]*dT*d[5mC]*dT*kG*k[5mC]*k[5mC]; antisense) [compound 830067] , please.
## Result high group

## Task Same lookup for 798823 (kA*k[5mC]*kA*dG*dT*dA*dG*dA*dG*d[5mC]*d[5mC]*dT*d[5mC]*k[5mC]*k[5mC]*k[5mC]; antisense) [compound 798823] , please.
## Result middle group

## Task Same lookup for 799964 (antisense k[5mC]*k[5mC]*k[5mC]*d[5mC]*dT*dT*dA*dG*d[5mC]*dG*d[5mC]*dA*dT*kT*k[5mC]*kT) [compound 799964] , please.
## Result low group

## Task Same lookup for 799563 (kA*kA*kA*dA*d[5mC]*dA*dA*dA*d[5mC]*dA*dA*dG*dG*kG*kT*k[5mC]; antisense) [compound 799563] , please.
## Result high group
